# pIC50 values compiled below
Tested on: MCF7
Assay: Cytotoxicity against human MCF7 cells assessed as reduction in cell proliferation measured after 72 hrs by WST8 assay
Assay type: functional, cell-based
Conditions: MCF7, 72 h
# pIC50: negative log10 of molar concentration; output just the value

Solved entries:
CC(=O)c1cc2c(o1)C(=O)c1ccccc1C2=O [NAPABUCASIN]: 6.62
CC(=O)c1cc2c(o1)C(=O)c1cccc(O)c1C2=O: 7.29
C[C@H](O)c1cc2c(o1)C(=O)c1c(O)cccc1C2=O: 5.95
CC1(C)CCC2=C(O1)c1ccccc1C(=O)C2=O [LAPACHONE]: 6.15
C[C@H](O)c1cc2c(o1)C(=O)c1cccc(O)c1C2=O: 6.30

Which pIC50 value belongs to C[C@H](O)c1cc2c(o1)C(=O)c1ccccc1C2=O ?
6.55

###

Tested on: MCF7
Assay: Effect on total STAT3 level in IL-6 induced human MCF7 cells at 0.5 to 4 uM preincubated for 1 hr followed by IL-6 stimulation and measured after 1 hr by Western blot analysis
Format: ADME, cell-based
Conditions: mcf7, 1 h
test.readout: Activity

C[C@H](O)c1cc2c(o1)C(=O)c1ccccc1C2=O: Non-Toxic
CC(=O)c1cc2c(o1)C(=O)c1cccc(O)c1C2=O: Non-Toxic
C[C@H](O)c1cc2c(o1)C(=O)c1cccc(O)c1C2=O: Non-Toxic
CC(=O)c1cc2c(o1)C(=O)c1ccccc1C2=O: Non-Toxic

###

Test system: MDA-MB-231
Test: Cytotoxicity against human MDA-MB-231 cells assessed as reduction in cell proliferation measured after 72 hrs by WST8 assay
Assay type: functional, cell-based
Conditions: MDA-MB-231, 72 h
test.readout: pIC50
Hey, just a heads up that pIC50 is the negative log base 10 of the concentration in molar.

CC1(C)CCC2=C(O1)c1ccccc1C(=O)C2=O: 5.86
CC(=O)c1cc2c(o1)C(=O)c1ccccc1C2=O: 6.60
C[C@H](O)c1cc2c(o1)C(=O)c1cccc(O)c1C2=O: 6.39

Quick check: pIC50 of C[C@H](O)c1cc2c(o1)C(=O)c1c(O)cccc1C2=O ?
6.48

Reported pIC50 for CC(=O)c1cc2c(o1)C(=O)c1cccc(O)c1C2=O : what is it?
6.77

Consider the molecule C[C@H](O)c1cc2c(o1)C(=O)c1ccccc1C2=O and give its measured pIC50.
5.80

###

Molecular target: Signal transducer and activator of transcription 3 (Homo sapiens)
Sequence (P40763 whole entry): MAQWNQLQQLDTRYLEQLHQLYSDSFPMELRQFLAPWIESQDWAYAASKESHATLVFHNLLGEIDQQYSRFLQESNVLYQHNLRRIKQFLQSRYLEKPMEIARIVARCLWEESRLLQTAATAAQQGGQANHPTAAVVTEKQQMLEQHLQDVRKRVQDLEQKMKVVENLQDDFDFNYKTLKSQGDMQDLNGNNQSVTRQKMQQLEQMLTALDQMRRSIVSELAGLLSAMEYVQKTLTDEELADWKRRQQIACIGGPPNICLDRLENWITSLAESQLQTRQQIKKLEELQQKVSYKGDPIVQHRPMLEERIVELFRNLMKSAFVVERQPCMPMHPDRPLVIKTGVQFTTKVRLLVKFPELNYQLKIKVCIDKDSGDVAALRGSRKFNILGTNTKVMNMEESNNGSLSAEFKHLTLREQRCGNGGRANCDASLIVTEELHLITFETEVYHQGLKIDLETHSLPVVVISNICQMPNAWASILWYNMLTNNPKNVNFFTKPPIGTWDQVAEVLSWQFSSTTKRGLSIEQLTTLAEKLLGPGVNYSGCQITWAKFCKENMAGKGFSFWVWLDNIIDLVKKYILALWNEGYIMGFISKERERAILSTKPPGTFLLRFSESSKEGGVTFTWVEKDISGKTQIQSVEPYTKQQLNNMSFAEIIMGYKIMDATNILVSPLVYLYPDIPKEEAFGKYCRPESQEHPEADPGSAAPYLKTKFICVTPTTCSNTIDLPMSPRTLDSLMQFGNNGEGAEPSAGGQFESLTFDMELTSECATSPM
Test: Inhibition of IL-6 induced STAT3 phosphorylation at Tyr705 residue in human MCF7 cells at 10 uM preincubated for 1 hr followed by IL-6 stimulation and measured after 1 hr by Western blot analysis relative to control
Assay type: cell-based
The source made the active and inactive calls. The rule behind the calls is not given here.
test.readout: inhibition

Use the examples below as a reference point.
CC1(C)CCC2=C(O1)C(=O)c1ccccc1C2=O [ALPHA-LAPACHONE]: inactive
CC(C)=CCC1=C(O)C(=O)c2ccccc2C1=O [LAPACHOL]: inactive
CC1(C)CCC2=C(O1)c1ccccc1C(=O)C2=O [LAPACHONE]: inactive
C[C@H](O)c1cc2c(o1)C(=O)c1c(O)cccc1C2=O: 100%

# next compound below
Returns the measured inhibition for the input compound. Input: C[C@H](O)c1cc2c(o1)C(=O)c1cccc(O)c1C2=O
100%

The values you see were collected from ChEMBL document CHEMBL4616624.
